assay-overview: yeast display, Sf9 membrane polyspecificity reagent, FACS + sequencing; frameworks hold sequencing errors
recorded-endpoint: polyreactivity (PSR sort gate)

// below: answered sequences
QGQLEESGGGLVQAGGSLRLSCAASGSIFGENAMGWYRQAPGKDRELVAAISSAGSTKYADSVKGRFTISRDNAKNSVYFQMNSLKPEDTAVYYCAAGYYRTSYPYSYYYWGQGTQVTVSS | low polyreactivity
QVQLVESGGGLVQAGVSLRLSCAASGNIFEQYAMGSDRQAPGKERELVARISWRGGSTYYADSVKGRFTISRDNAKNTVYLQLNSLKPEDTAVYYCNALEVVYFGYYPSDYWGQGTQVTVSS | low polyreactivity
QVQLVESGGGLVQAGGSLRLSCAASGRIFSRYVMGWYRQAPGKEREFFASITWSGSSTYYADSVKGRFTISRDNAKNTVYLQMNSLKPEDTAVYYCAALGLLSPSPCGTHISEYDSWGQGTQVTVSS | low polyreactivity
QVQLVESGGGLVQAGGSLRLSCAASGSIFHGYAMGWYRQAPGKERELVAAISYTGGRTYYADSVKGRFTISRDNAKNTVYLQMNSLKPEDTAVYYCADDSQLTKFYYWGQGTQVTVSS | high polyreactivity

Quick one: polyreactivity (PSR sort gate) of "QVQLVESGGGLVQAGGSLRLSCAASGRTFGRYPMGCYRQAPGKERELVAAIRYSGSSTYYADSVKGRFTISRDNAKNTVYLQMYSLKPEDTAVYYCAKRYYGKDYWGQGSQVTVSS" ?
high polyreactivity

Please do the same for "QVQLVESGGGLVQAGGSLRLSCAASGRTFRWYAMGWYRQAPGKERELVASITWSGGSTYYADSVKGRFTISRDNAKNTVYLQMNSLKPEDTAVYYCNRVLVVSMYEGNYWGQGTQVTVSS" as well.
high polyreactivity

Next up: "QVQLVESGGGLVQAGGSLRLSCSASGSTFYPYAMGWYRQAPGKERELVAAISSGGSTSYADSVKGRFTISRDNAKNTVYLQMNSLKPEDTAVYYCNASSPGAVPVYDYDYWGQGTQVTVSS"
low polyreactivity

Would you mind doing "QVQLVESGGGLVQAGGSLSLSCAASGSTFAYYAMGWYRQAPGKERELVAGITWTGGSTYYADSVKGRFTISRDNAKNTVYIQMNSLKPEDTAVYYCAVTYPISEFYWGVKDRYDYWGQCTQVTVSS" as well?
low polyreactivity

Also need "QVQLVESGGGLVQAGGSLRLSCAASGRIFVSNARGWYRQSPGKECELVAAISKSAARTAYADSVKGRFTISRDTAKNTVYLQMNSLKPEDTAVYYCNADRYRLYGESKGEGNYWGQGTQVTVSS" , thanks.
high polyreactivity

Follow-up entry: "QVQLVESGGGLVQAGGSLRLSCAASGRTFGVNAMGWYRQAPGKEREFVAAITWSGGSTYYADSVKGRFTISRDNAKNTVYLQMISLKPEDTAVYYCAAVQWRYDGSFTGYGYWGQGTQVTVSS"
low polyreactivity

For "QVQLVESGGGLVQAGGSLRLSCAASGSTFWSYTMGWYRQAPGKERELVARITGRGGSTYYADSVKGRFTISRDNAKNTVYLLMNSLKPEDTAVYYCAAGGGRYGFYRFDYWGQGTQVTVSS" then?
low polyreactivity
